Exercise: state measured Selectivity for each of the proteins provided.
- TARGET: pre-pro-human insulin

Identify measured Selectivity corresponding to trypsin variant SEQ ID NO: 23 (protein) IVGGYTCAANSIPYQVSLNSGSHRCGGSLINSQWVVSAAHCYKSRIQVRLGEHNIDVLEGNEQFINAAKIITHPNFNGNTLDNDIMLIKLSSPATLNSRVATVSLPRSCAAAGTECLISGWGNTQSSGSSYPSLLQCLKAPVLSDSSCKSSYPGQITGNMICVGFLEGGKDACQGDSGGPVVCNGQLQGIVSSGYGCAQKNKPGVYTKVCNYVNWIQQTIAAN >90%

Identify measured Selectivity corresponding to trypsin variant SEQ ID NO: 5 (protein) IVGGYTCAANSIPYQVSLNSGSHRCGGSLINSQWVVSAAHCYKSRIQVRLGEHNIDVLEGNEQFINAAKIITHPNFNGNTLDNDIMLIKLSSPATLNSLVATVSLPRSCAAAGTECLISGWGNTKSSGSSYPSLLQCLKAPVLSDSSCKSSYPGQITGNMICVGFLEGGKDACQGDSGGPVVCNGQLQGIVSSGYGCAQKNKPGVYTKVCNYVNWIQQTIAAN >90%

Identify measured Selectivity corresponding to trypsin variant SEQ ID NO: 80 (protein) IVGGYTCAANSIPYQVSLNSGSHRCGGSLINSQWVVSAAHCYKSRIQVRLGEHNIHVLEGNEQFINAAKIITHPNFNPNTLDNDIMLIKLSSPATLNSHVATVSLPTSCAAAGTECLISGWGNTSSSGSSMPSLLQCLKAPVLSDSSCKSSYPGQITGNMICVGFLEGGKDACQGDSGGPVVCNGQLQGIVSSGYGCAQKNKPGVYTKVCNYVNWIQQTIAAN >90%

Identify measured Selectivity corresponding to trypsin variant SEQ ID NO: 29 (protein) IVGGYTCAANSIPYQVSLNSGSHLCGGSLINSQWVVSAAHCYKSRIQVRLGEHNIDVLEGNEQFINAAKIITHPNFNGNTLDNDIMLIKLSSPATLNSRVATVSLPRSCAAAGTECLISGWGNTKSSGSSYPSLLQCLKAPVLSDSSCKSSYPGQITGNMICVGFLEGGKDACQGDSGGPVVCNGQLQGIVSSGYGCAQKNKPGVYTKVCNYVNWIQQTIAAN >90%

Identify measured Selectivity corresponding to trypsin variant SEQ ID NO: 21 (protein) IVGGYTCAANSIPYQVSLNSGSHRCGGSLINSQWVVSAAHCYKSRIQVRLGEHNIDVLEGNEQFINAAKIITHPNFNGNTLDNDIMLIKLSSPATLNSRVATVSLPRSCAAAGTECLISGWGNTHSSGSSYPSLLQCLKAPVLSDSSCKSSYPGQITGNMICVGFLEGGKDACQGDSGGPVVCNGQLQGIVSSGYGCAQKNKPGVYTKVCNYVNWIQQTIAAN >90%

Identify measured Selectivity corresponding to trypsin variant SEQ ID NO: 68 (protein) IVGGYTCAANSIPYQVSLNSGSHRCGGSLINSQWVVSAAHCYKSRIQVRLGEHNIDVLEGNEQFINAAKIITHPNFNGNTLDNDIMLIKLSSPATLNSRVATVSLPRSCAAAGTECLISGWGNTKSSGSSDPSLLQCLKAPVLSDSSCKSSYPGQITGNMICVGFLEGGKDACQGDSGGPVVCNGQLQGIVSSGYGCAQKNKPGVYTKVCNYVNWIQQTIAAN >70%

Identify measured Selectivity corresponding to trypsin variant SEQ ID NO: 55 (protein) IVGGYTCAANSIPYQVSLNSGSHRCGGSLINSQWVVSAAHCYKSRIQVRLGEHNIWVLEGNEQFINAAKIITHPNFNGNTLDNDIMLIKLSSPATLNSRVATVSLPRSCAAAGTECLISGWGNTKSSGSSYPSLLQCLKAPVLSDSSCKSSYPGQITGNMICVGFLEGGKDACQGDSGGPVVCNGQLQGIVSSGYGCAQKNKPGVYTKVCNYVNWIQQTIAAN >90%

Identify measured Selectivity corresponding to trypsin variant SEQ ID NO: 50 (protein) IVGGYTCAANSIPYQVSLNSGSHNCGGSLINSQWVVSAAHCYKSRIQVRLGEHNIDVLEGNEQFINAAKIITHPNFNGNTLDNDIMLIKLSSPATLNSRVATVSLPRSCAAAGTECLISGWGNTKSSGSSYPSLLQCLKAPVLSDSSCKSSYPGQITGNMICVGFLEGGKDACQGDSGGPVVCNGQLQGIVSSGYGCAQKNKPGVYTKVCNYVNWIQQTIAAN >65%

Identify measured Selectivity corresponding to trypsin variant SEQ ID NO: 123 (protein) IVGGYTCAANSIPYQVSLNSGSHGCGGSLINSQWVVSAAHCYKSRIQVRLGEHNIDVLEGNEQFINAAKIITHPNFNGNTLDNDIMLIKLSSPATLNSRVATVSLPRSCAAAGTECLISGWGNTKSSGSSYPSLLQCLKAPVLSDSSCKSSYPGQITGNMICVGFLEGGKDACQGDSGGPVVCNGQLQGIVSSGYGCAQKNKPGVYTKVCNYVNWIQQTIAAN 60.7%

Identify measured Selectivity corresponding to trypsin variant SEQ ID NO: 37 (protein) IVGGYTCAANSIPYQVSLNSGSHRCGGSLINSQWVVSAAHCYKSRIQVRLGEHNIDVLEGNEQFINAAKIITHPNFNGNTLDNDIMLIKLSSPATLNSRVATVSLPRSCAAAGTECLISGWGNTKSSGSSTPSLLQCLKAPVLSDSSCKSSYPGQITGNMICVGFLEGGKDACQGDSGGPVVCNGQLQGIVSSGYGCAQKNKPGVYTKVCNYVNWIQQTIAAN >90%
